tested on: CD-1 mouse liver microsomes; assay: Steady-state kinetics for 5F-APINACA metabolism by CD-1 mouse liver microsomes; assay type: in vitro ADME; conditions: Combined adamantyl hydroxylation pathway; parentheses 95% confidence interval; read-out: Km or Kh
TEST_READOUT: Km
State the value, then name its unit.

# input Item N-(1-adamantyl)-1-(5-pentyl)-1H-indazole-3-carboxamide [5F-APINACA] with CD-1 mouse liver microsomes - Km?
# output 3.8 µM

----------
system: pooled human liver microsomes (HLM150); experiment: Steady-state kinetics for 5F-APINACA metabolism by pooled human liver microsomes; assay type: in vitro ADME; settings: Combined adamantyl hydroxylation pathway; parentheses 95% confidence interval
TEST_READOUT: Km (µM)
// return numeric value only (unit: µM, not printed)

# input Reported Km for N-(1-adamantyl)-1-(5-pentyl)-1H-indazole-3-carboxamide [5F-APINACA] : what is it?
# output 3.3
